# key: entry, value: inhibition
test-target: Acyl-protein thioesterase 2 (Homo sapiens) (UniProt O95372)
Sequence (O95372 whole entry, looked up): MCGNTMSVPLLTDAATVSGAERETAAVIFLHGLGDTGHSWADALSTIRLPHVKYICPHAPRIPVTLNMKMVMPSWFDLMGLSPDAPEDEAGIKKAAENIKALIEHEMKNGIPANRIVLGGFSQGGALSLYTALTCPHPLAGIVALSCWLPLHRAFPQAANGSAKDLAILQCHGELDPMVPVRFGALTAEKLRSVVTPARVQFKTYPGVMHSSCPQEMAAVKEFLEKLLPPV
method-description: LYPLA1 inhibitor selectivity over serine hydrolases, late-stage follow-up, selectivity assay for LYPLA1 inhibitor project, cell lysate, competitive ABPP, HEK293T proteome, set 2 (AID 652018);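 also: 0% = DMSO-only band intensity and 100% = blank gel background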
test-context: competitive ABPP FP-PEG-Rh gel, LYPLA2, at 10 µM, stronger effect = higher value
measurement-kind: inhibition (%)

COc1ccc(N2CCN(C(=O)n3ncc(-c4ccccc4)n3)CC2)cc1 | 30
O=C(CN1CCN(C(=O)n2ncc(-c3ccc(Br)cc3)n2)CC1)Nc1cc(C(F)(F)F)ccc1Cl | 75
O=C(CN1CCN(C(=O)n2nc(Br)c(Br)n2)CC1)Nc1cc(C(F)(F)F)ccc1Cl | 100
O=C(CN1CCN(C(=O)n2cc(-c3ccc(OC(F)(F)F)cc3)nn2)CC1)Nc1cc(C(F)(F)F)ccc1Cl | 30
COc1ccc(N2CCN(C(=O)n3ncc(-c4ccc(OC(F)(F)F)cc4)n3)CC2)cc1 | 20
O=C(CN1CCN(C(=O)n2cncn2)CC1)Nc1cc(C(F)(F)F)ccc1Cl | 30
COc1ccc(N2CCN(C(=O)n3nc(Br)nc3Br)CC2)cc1 | 95
O=C(CN1CCN(C(=O)n2ncc(-c3ccc(-c4ccccc4)cc3)n2)CC1)Nc1cc(C(F)(F)F)ccc1Cl | 30
COc1ccc(N2CCN(C(=O)n3ccnn3)CC2)cc1 | 85
O=C(N1CCN(c2ccc(Cl)c(Cl)c2)CC1)n1ncc(C(O)(c2ccccc2)c2ccccc2)n1 | 30
O=C(CN1CCN(C(=O)n2nc(Br)nc2Br)CC1)Nc1cc(C(F)(F)F)ccc1Cl | 100
COc1ccc(N2CCN(C(=O)n3cc(C(O)(c4ccccc4)c4ccccc4)nn3)CC2)cc1 | 100
COc1ccc(N2CCN(C(=O)n3cncn3)CC2)cc1 | 95
O=C(CN1CCN(C(=O)n2nccn2)CC1)Nc1cc(C(F)(F)F)ccc1Cl | 95
COc1ccc(N2CCN(C(=O)n3ncc(C(O)(c4ccccc4)c4ccccc4)n3)CC2)cc1 | 100
COc1ccc(N2CCN(C(=O)n3nc(Br)c(Br)n3)CC2)cc1 | 100
O=C(CN1CCN(C(=O)n2cc(-c3ccc(-c4ccccc4)cc3)nn2)CC1)Nc1cc(C(F)(F)F)ccc1Cl | 30
O=C(CN1CCN(C(=O)n2ncc(-c3ccc(OC(F)(F)F)cc3)n2)CC1)Nc1cc(C(F)(F)F)ccc1Cl | 95
COc1ccc(N2CCN(C(=O)n3cc(-c4ccc(OC(F)(F)F)cc4)nn3)CC2)cc1 | 60

###

test-target: Acyl-protein thioesterase 1 (Homo sapiens)
method-description: LYPLA1 inhibitor selectivity over serine hydrolases, late-stage follow-up, selectivity assay for LYPLA1 inhibitor project, cell lysate, competitive ABPP, HEK293T proteome, set 2 (AID 652018);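 also: 0% = DMSO-only band intensity and 100% = blank gel background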
test-context: competitive ABPP FP-PEG-Rh gel, LYPLA1, inhibition, at 1 µM, stronger effect = higher value
Recorded inhibition, one value per entry.
measurement-kind: inhibition (%)

O=C(N1CCN(c2ccc(Br)cc2)CC1)n1ncc(C(O)(c2ccccc2)c2ccccc2)n1 | 90
COc1ccc(N2CCN(C(=O)n3ncc(-c4ccccc4)n3)CC2)cc1 | 30
O=C(CN1CCN(C(=O)n2ncc(-c3ccc(-c4ccccc4)cc3)n2)CC1)Nc1cc(C(F)(F)F)ccc1Cl | 30
O=C(CN1CCN(C(=O)n2nc(Br)c(Br)n2)CC1)Nc1cc(C(F)(F)F)ccc1Cl | 90
O=C(CN1CCN(C(=O)n2cc(C(O)(c3ccccc3)c3ccccc3)nn2)CC1)Nc1cc(C(F)(F)F)ccc1Cl | 90
O=C(CN1CCN(C(=O)n2cncn2)CC1)Nc1cc(C(F)(F)F)ccc1Cl | 30
COc1ccc(N2CCN(C(=O)n3nccn3)CC2)cc1 | 80
O=C(CN1CCN(C(=O)n2cc(-c3ccc(OC(F)(F)F)cc3)nn2)CC1)Nc1cc(C(F)(F)F)ccc1Cl | 30
COc1ccc(N2CCN(C(=O)n3nc(Br)nc3Br)CC2)cc1 | 60

These entries and their values trace back to PubChem BioAssay AID652018.
